ASSAY: Volume of distribution in mouse at 1 mg/kg, iv measured after 24 hrs by LC/MS/MS analysis
Format: ADME, organism-based
EXPERIMENTAL CONTEXT: in vivo
MEASURED PROPERTY: Vd (L/kg)
State the answer as a number, implicitly in L/kg.

get_value(item= CCn1c(=O)c2ccnn2c2cc(N)c(C(=O)NCc3cncnc3)cc21 , readout=Vd) returns 3.13

* * *

ASSAY: Cmax in mouse at 1 mg/kg, iv measured after 24 hrs by LC/MS/MS analysis
Format: ADME, organism-based
Set-up: time 24 hrs, dose 1 mg/kg, route iv
EXPERIMENTAL CONTEXT: in vivo
Recorded measurements of Cmax, one per entry

get_value(item= CCn1c(=O)c2ccnn2c2cc(N)c(C(=O)NCc3cccnc3)cc21 , readout=Cmax) returns < 50 ng/mL

Let us move to another entry and its Cmax.
get_value(item= CCn1c(=O)c2ccnn2c2cc(N)c(C(=O)NCc3cncnc3)cc21 , readout=Cmax) returns 567 ng/mL

* * *

Recorded measurements of pIC50, one per entry
TESTED SYSTEM: Phosphatidylinositol 4,5-bisphosphate 3-kinase catalytic subunit alpha isoform (Homo sapiens)
Sequence (P42336 whole entry, canonical isoform): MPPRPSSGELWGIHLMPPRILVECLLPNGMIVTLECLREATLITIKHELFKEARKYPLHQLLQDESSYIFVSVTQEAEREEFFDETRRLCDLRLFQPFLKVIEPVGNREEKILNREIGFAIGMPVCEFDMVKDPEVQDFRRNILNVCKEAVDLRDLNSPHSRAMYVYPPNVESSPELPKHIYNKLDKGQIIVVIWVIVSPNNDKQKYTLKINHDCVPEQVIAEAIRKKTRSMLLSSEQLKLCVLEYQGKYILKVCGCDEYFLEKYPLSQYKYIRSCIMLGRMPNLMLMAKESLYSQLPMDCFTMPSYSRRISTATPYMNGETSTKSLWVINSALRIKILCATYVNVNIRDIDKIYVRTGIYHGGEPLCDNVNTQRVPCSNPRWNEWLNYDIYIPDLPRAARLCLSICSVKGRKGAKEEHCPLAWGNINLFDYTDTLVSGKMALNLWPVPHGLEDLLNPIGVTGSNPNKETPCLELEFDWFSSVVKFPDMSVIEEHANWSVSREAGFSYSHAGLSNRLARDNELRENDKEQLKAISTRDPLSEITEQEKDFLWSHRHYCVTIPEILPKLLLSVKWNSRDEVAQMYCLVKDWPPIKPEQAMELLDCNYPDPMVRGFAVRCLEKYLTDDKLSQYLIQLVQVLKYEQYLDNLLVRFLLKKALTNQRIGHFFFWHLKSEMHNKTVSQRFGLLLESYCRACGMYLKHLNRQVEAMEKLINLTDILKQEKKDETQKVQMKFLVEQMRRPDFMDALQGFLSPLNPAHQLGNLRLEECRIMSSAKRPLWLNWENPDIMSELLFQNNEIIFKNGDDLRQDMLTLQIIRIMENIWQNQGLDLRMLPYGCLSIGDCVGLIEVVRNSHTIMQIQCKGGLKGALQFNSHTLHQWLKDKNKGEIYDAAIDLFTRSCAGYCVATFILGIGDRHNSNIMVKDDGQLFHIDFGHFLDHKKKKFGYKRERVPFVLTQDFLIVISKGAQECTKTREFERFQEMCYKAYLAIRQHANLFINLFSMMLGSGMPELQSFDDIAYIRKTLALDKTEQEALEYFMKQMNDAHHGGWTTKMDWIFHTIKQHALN
ASSAY: Inhibition of PI3Kalpha (unknown origin) using PIP2:PS as substrate preincubated for 1 hr followed by ATP and substate addition and measured after 1 hr by ADP-glo reagent based assay
// returns pIC50 (minus log10 of molar concentration), number only

Known pIC50 results, listed for orientation:
get_value(item= CCn1c(=O)c2ccnn2c2ccc(C(=O)NCc3cncc(C)c3)cc21 , readout=pIC50) returns 5.58

get_value(item= CCNC(=O)c1ccc2c(c1)n(CCOC)c(=O)c1ccnn12 , readout=pIC50) returns 5.19

get_value(item= O=C(NCc1cccnc1)c1ccc2c(c1)n(CC1CC1)c(=O)c1ccnn12 , readout=pIC50) returns 5.58

Let us move to another entry and its pIC50.
get_value(item= CCn1c(=O)c2ccnn2c2ccc(C(=O)NCc3ccncc3)cc21 , readout=pIC50) returns 5.54

* * *

ASSAY: Half life in mouse at 5 mg/kg, po measured after 24 hrs by LC/MS/MS analysis
Assay type: ADME, organism-based
EXPERIMENTAL CONTEXT: in vivo
MEASURED PROPERTY: half-life

get_value(item= CCn1c(=O)c2ccnn2c2cc(N)c(C(=O)NCc3cncnc3)cc21 , readout=half-life) returns 4.97 h

* * *

TESTED SYSTEM: Phosphatidylinositol 4,5-bisphosphate 3-kinase catalytic subunit delta isoform (Homo sapiens, UniProt O00329)
Sequence (O00329 whole entry): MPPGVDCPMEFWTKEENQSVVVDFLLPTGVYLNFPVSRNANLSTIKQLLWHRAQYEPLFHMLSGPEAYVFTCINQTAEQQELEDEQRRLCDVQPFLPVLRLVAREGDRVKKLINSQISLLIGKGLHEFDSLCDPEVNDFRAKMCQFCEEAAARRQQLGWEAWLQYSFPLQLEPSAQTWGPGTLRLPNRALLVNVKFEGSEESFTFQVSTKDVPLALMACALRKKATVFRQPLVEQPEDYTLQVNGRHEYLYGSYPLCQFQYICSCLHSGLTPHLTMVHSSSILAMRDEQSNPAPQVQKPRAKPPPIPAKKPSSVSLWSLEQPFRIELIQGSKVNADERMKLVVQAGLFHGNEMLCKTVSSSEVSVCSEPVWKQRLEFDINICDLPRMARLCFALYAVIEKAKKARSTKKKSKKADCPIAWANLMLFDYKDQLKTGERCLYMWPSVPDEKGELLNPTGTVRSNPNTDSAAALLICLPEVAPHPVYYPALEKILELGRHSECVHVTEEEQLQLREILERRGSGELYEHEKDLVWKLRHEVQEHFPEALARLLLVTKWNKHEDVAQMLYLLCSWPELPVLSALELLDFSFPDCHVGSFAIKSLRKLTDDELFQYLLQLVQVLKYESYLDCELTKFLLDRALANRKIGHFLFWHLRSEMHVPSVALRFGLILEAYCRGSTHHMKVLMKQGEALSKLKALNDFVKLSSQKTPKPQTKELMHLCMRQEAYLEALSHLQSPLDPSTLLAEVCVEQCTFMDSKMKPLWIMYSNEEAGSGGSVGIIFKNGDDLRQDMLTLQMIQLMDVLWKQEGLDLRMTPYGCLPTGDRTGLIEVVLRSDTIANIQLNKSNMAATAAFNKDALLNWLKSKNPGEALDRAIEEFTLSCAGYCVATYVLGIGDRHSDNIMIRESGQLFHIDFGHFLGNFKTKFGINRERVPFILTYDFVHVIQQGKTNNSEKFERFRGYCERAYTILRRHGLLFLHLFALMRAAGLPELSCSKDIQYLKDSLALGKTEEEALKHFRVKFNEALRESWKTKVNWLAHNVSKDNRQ
ASSAY: Inhibition of PI3Kdelta (unknown origin) using PIP2:PS as substrate preincubated for 1 hr followed by ATP and substate addition and measured after 1 hr by ADP-glo reagent based assay
Recorded measurements of IC50, one per entry

get_value(item= CCn1c(=O)c2ccnn2c2cc(NC(C)=O)c(C(=O)NCc3cncnc3)cc21 , readout=IC50) returns > 20 µM

get_value(item= CCn1c(=O)c2ccnn2c2cc(NC)c(C(=O)NCc3cccnc3)cc21 , readout=IC50) returns > 20 µM

Let us move to another entry and its IC50.
get_value(item= CCn1c(=O)c2ccnn2c2cc(N(C)C)c(C(=O)NCc3cccnc3)cc21 , readout=IC50) returns > 20 µM
